Target: human TLR8 (Homo sapiens, UniProt Q9NR97)
Construct: host or cells: HEK-Blue cells
Assay: TLR8 inhibition reporter assay (HEK-Blue SEAP reporter, R848 stimulation)
Type: cell-based
Details: HEK-Blue cells overexpressing human TLR8, SEAP reporter, R848 15.9 μM, 22 hour incubation
From the text: TLR7/8/9 Inhibition Reporter Assays HEK-Blue™-cells (Invivogen) overexpressing human TLR7, TLR8 or TLR9 receptors were used for screening inhibitors of these receptors using an inducible SEAP (secreted embryonic alkaline phosphatase) reporter gene under the control of the IFN-β minimal promoter fused to five NF-κB and AP-1-binding sites. […]
PROPERTY: IC50 (nM)

{"COMPOUND": "CN[C@H](C)C(=O)N1CCC(c2ccc3[nH]c(-c4cc(C)c(=O)n(C)c4)c(C(C)C)c3c2)CC1", "IC50 [nM]": 4.3}
{"COMPOUND": "Cc1c(-c2[nH]c3ccc(C4CCN(CC5CCOC5)CC4)cc3c2C(C)C)cn(C)c(=O)c1Cl (stereo not drawn) [Example 252]", "IC50 [nM]": 2.7}
{"COMPOUND": "COc1c(C)c(-c2[nH]c3ccc(C4CCN(CC(=O)N(C)C)CC4)cc3c2C(C)C)cn(C)c1=O", "IC50 [nM]": 37.3}
{"COMPOUND": "Cc1cc(-c2[nH]c3ccc(C4CCNCC4)cc3c2C(C)C)nn(C)c1=O", "IC50 [nM]": 3.3}
{"COMPOUND": "CC(C)c1c(-c2cc(-c3cncnc3)c(=O)n(C)c2)[nH]c2ccc(C3CCNCC3)cc12", "IC50 [nM]": 5.9}

(I) Cc1nc(-c2[nH]c3ccc(C4CCN(C(C)C)CC4)cc3c2C(C)C)cn(C)c1=O
(II) CC(=O)N1CCC(c2ccc3[nH]c(-c4cn(C)c(=O)c(Cl)c4C)c(C(C)C)c3c2)CC1
I would appreciate it if you could say which entry, I or II , has the lower IC50 value. Selection: enter the item's label.
II
(II: 4.8 nM, I: 34.2 nM)

---

Molecular target: human TLR8 (Homo sapiens, UniProt Q9NR97)
Sequence (Q9NR97 27-1041): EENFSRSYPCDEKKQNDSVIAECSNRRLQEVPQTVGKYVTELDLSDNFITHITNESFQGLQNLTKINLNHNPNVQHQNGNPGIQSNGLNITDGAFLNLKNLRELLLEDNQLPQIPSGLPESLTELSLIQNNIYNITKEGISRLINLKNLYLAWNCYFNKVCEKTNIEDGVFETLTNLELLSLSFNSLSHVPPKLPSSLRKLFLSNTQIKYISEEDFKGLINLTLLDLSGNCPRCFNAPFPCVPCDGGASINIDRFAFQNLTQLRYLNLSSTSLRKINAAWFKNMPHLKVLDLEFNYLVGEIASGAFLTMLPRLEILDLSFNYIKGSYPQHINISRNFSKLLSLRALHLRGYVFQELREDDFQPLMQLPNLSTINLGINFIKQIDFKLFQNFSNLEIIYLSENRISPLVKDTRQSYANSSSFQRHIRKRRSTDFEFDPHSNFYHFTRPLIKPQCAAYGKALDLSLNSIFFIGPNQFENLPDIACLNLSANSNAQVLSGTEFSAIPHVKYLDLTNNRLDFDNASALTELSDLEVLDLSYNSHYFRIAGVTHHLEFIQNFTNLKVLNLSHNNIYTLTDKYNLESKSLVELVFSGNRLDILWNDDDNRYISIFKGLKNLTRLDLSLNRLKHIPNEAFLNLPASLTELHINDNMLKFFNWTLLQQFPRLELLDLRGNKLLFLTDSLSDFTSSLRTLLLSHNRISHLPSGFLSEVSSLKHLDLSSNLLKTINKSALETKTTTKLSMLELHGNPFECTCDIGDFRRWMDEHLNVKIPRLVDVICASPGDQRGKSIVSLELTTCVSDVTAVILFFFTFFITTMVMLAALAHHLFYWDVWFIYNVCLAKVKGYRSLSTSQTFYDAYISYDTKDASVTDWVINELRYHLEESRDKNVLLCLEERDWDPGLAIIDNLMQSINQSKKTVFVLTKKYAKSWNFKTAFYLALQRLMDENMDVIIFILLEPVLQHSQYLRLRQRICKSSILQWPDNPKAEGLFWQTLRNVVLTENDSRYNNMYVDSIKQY
Experiment: TLR8 inhibition reporter assay (HEK-Blue SEAP reporter, R848 stimulation)
Conditions: HEK-Blue cells overexpressing human TLR8, SEAP reporter, R848 15.9 μM, 22 hour incubation
PROPERTY: IC50 (nM)

Take a look at these entries with their results.
{"COMPOUND": "Cc1cc(-c2[nH]c3ccc(C4CCN(C5CCCCC5)CC4)cc3c2C(C)C)cn(C)c1=O", "MEASURED": 5.7}
{"COMPOUND": "Cc1c(-c2[nH]c3ccc(C4CCN(CC5CCOC5)CC4)cc3c2C(C)C)cn(C)c(=O)c1Cl (stereo not shown) [Example 255]", "MEASURED": 2.3}
{"COMPOUND": "Cc1c(-c2[nH]c3ccc(C4CCN(CCS(C)(=O)=O)CC4)cc3c2C(C)C)cn(C)c(=O)c1Cl", "MEASURED": 4.4}
{"COMPOUND": "CNC(=O)CN1CCC(c2ccc3[nH]c(-c4cc(C)c(=O)n(C)c4)c(C(C)C)c3c2)CC1", "MEASURED": 5.3}

(a) Cc1cc(-c2[nH]c3ccc(C4CCN(CCC(C)C)CC4)cc3c2C(C)C)cn(C)c1=O
(b) CC(=O)N1CC(N2CCC(c3ccc4[nH]c(-c5cn(C)c(=O)c(Cl)c5C)c(C(C)C)c4c3)CC2)C1
(c) Cc1c(-c2[nH]c3ccc(C4CCN(C5CCOCC5)CC4)cc3c2C(C)C)cn(C)c(=O)c1C
Rank by IC50 (largest to smallest). Returns: the labels listed in the requested order.
b, a, c
(b: 44.8 nM, a: 4.6 nM, c: 2.6 nM)

---

Biological target: human TLR8 (Homo sapiens)
Sequence (Q9NR97 27-1041): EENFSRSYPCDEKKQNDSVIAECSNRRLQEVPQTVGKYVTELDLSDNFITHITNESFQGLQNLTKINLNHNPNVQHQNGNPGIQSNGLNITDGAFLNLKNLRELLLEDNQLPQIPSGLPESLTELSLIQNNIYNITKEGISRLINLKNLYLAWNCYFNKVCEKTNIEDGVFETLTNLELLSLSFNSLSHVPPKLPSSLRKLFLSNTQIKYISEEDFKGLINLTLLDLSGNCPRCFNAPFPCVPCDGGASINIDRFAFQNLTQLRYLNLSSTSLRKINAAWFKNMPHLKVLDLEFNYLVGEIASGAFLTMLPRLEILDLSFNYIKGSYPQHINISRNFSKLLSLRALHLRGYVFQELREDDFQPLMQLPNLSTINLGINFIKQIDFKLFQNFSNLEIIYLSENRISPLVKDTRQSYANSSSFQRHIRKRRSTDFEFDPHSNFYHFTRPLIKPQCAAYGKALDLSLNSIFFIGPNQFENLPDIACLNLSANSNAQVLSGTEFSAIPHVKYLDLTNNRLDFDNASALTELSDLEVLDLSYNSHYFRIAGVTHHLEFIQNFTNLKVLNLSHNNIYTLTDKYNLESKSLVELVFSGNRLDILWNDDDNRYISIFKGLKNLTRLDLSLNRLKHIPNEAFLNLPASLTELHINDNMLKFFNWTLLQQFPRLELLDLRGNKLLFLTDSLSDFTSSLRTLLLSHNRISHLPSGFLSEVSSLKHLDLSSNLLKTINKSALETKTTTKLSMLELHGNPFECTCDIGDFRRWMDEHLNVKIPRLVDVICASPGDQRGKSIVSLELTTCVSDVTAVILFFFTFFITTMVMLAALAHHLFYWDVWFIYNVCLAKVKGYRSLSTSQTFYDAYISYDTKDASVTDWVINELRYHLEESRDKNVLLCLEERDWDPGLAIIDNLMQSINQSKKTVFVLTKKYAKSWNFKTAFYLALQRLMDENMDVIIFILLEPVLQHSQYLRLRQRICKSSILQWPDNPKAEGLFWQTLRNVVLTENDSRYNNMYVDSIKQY
Assay: TLR8 inhibition reporter assay (HEK-Blue SEAP reporter, R848 stimulation)
Details: HEK-Blue cells overexpressing human TLR8, SEAP reporter, R848 15.9 μM, 22 hour incubation
pIC50: −log10 of the molar value.
PROPERTY: pIC50

{"COMPOUND": "Cc1cc(-c2[nH]c3ccc(C4CCN(Cc5cnn(C)c5)CC4)cc3c2C(C)C)cn(C)c1=O [Example 196]", "MEASURED": 8.62}
{"COMPOUND": "Cc1c(-c2[nH]c3ccc(C4CCN(C(C)C)CC4)cc3c2C(C)C)cn(C)c(=O)c1-c1cccnc1 [Example 237]", "MEASURED": 7.70}
{"COMPOUND": "Cc1c(-c2[nH]c3ccc(C4CCN(C(=O)CN(C)C)CC4)cc3c2C(C)C)cn(C)c(=O)c1C#N [Example 274]", "MEASURED": 7.82}
{"COMPOUND": "COCCn1cc(-c2[nH]c3ccc(C4CCN(CC(=O)N(C)C)CC4)cc3c2C(C)C)cc(C)c1=O [Example 159]", "MEASURED": 7.71}
{"COMPOUND": "Cc1cc(=O)n(C)nc1-c1[nH]c2ccc(C3CCNCC3)cc2c1C(C)C [Example 10]", "MEASURED": 7.42}

(A) COCCOCCN1CCC(c2ccc3[nH]c(-c4cn(C)c(=O)c(Cl)c4C)c(C(C)C)c3c2)CC1 [Example 101]
(B) Cc1c(-c2[nH]c3ccc(C4CCN(C5CCOCC5)CC4)cc3c2C(C)C)nn(C)c(=O)c1C [Example 205]
Input pair: A , B . Output: entry with lower pIC50. Lab log: write the label of the selected item as the result.
B
(B: 7.70, A: 8.03)

(I) Cc1cc(-c2[nH]c3ccc(C4CCN(CC(=O)N(C)C)CC4)cc3c2C(C)C)cn(CCO)c1=O [Example 167]
(II) Cc1cc(-c2[nH]c3ccc(C4CCN(CC(C)C)CC4)cc3c2C(C)C)cn(Cc2ccccc2)c1=O [Example 113]
(III) CCc1cc(-c2[nH]c3ccc(C4CCNCC4)cc3c2C(C)C)cn(CC)c1=O [Example 68]
(IV) CCCN1CCC(c2ccc3[nH]c(-c4cc(COC)c(=O)n(C)c4)c(C(C)C)c3c2)CC1 [Example 348]
Provide the items ranked by increasing pIC50. State the ranking by listing the labels in the requested order.
II, IV, I, III

(P) CC(C)c1c(-c2cc(-c3cncnc3)c(=O)n(C)c2)[nH]c2ccc(C3CCN(CC4CCOC4)CC3)c(F)c12 (stereo not shown) [Example 259]
(Q) Cc1cc(-c2[nH]c3ccc(C4CCN(CCC#N)CC4)cc3c2C(C)C)cn(C)c1=O [Example 76]
(R) Cc1c(-c2[nH]c3ccc(C4CCN(C(=O)CN(C)C)CC4)cc3c2C(C)C)cn(C)c(=O)c1Cl [Example 278]
Please put the entries in order of rising pIC50. Please list the labels in the order you were asked to rank them.
R, Q, P

Values were extracted from patent US11447466B2.
